testSystem: T1, 4H797-bA
T1 chain: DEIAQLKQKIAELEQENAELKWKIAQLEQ
procedureDetails: two-hybrid library CCNG1;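 note: natural log of median RNA to DNA barcode read ratio; higher means stronger binding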
measuredMetric: interaction score
Give the value as a plain number.

binder | interaction score
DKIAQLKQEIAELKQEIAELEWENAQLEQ [4H2627-bA] | -1.1
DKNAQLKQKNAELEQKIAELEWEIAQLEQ [4H4001-bA] | -1.28
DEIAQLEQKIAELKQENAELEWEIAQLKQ [4H338-bA] | -0.317
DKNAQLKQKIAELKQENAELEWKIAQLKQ [4H3926-bA] | 0
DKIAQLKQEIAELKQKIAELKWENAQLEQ [4H2667-bA] | -1.09

Pending binder:
Ask: What value of interaction score has been recorded for this entry: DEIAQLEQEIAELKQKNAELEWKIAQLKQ [4H118-bA]
Reply: -1.22
